Test system: SGC-7901
measurement_protocol: Antiproliferative activity against human SGC7901 cells after 48 hrs by MTT assay
Assay type: functional, cell-based
assay_conditions: SGC-7901, 48 h
attribute_measured: pIC50
The scale used: pIC50 is minus the common logarithm of the concentration in molar units.

// below: answered compounds
{"compound": "O=C(/C=C/c1ccc(Oc2cc(=O)oc3ccccc23)cc1)/C=C/c1cccnc1", "measured_on": "SGC-7901", "pIC50": 4.76}
{"compound": "COc1ccc(/C=C/C(=O)/C=C/c2ccc(Oc3cc(=O)oc4ccccc34)cc2)cc1OC", "measured_on": "SGC-7901", "pIC50": 4.31}
{"compound": "COc1cc(OC)c2c(=O)c(OCCCCOc3ccc(/C=C/C(=O)/C=C/c4ccccn4)cc3)c(-c3cc(OC)c(OC)c(OC)c3)oc2c1", "measured_on": "SGC-7901", "pIC50": 5.62}
{"compound": "O=C(/C=C/c1ccc(Cl)cc1)/C=C/c1ccc(Oc2cc(=O)oc3ccccc23)cc1", "measured_on": "SGC-7901", "pIC50": 4.32}

Bench note: what pIC50 did O=C(/C=C/c1ccc(Oc2cc(=O)oc3ccccc23)cc1)/C=C/c1ccccn1 show? 4.60

Try this compound next: COc1cc(OC)c2c(=O)c(OCCCCOc3ccccc3/C=C/C(=O)/C=C/c3cccs3)c(-c3cc(OC)c(OC)c(OC)c3)oc2c1 4.58

Try this compound next: COc1cc(OC)c2c(=O)c(OCCCOc3ccccc3/C=C/C(=O)/C=C/c3cccc([N+](=O)[O-])c3)c(-c3cc(OC)c(OC)c(OC)c3)oc2c1 5.27

Try this compound next: COc1cc(OC)c2c(=O)c(OCCCOc3ccccc3/C=C/C(=O)/C=C/c3ccccn3)c(-c3cc(OC)c(OC)c(OC)c3)oc2c1 5.97

Try this compound next: COc1cc(OC)c2c(=O)c(OCCCOc3ccc(/C=C/C(=O)/C=C/c4scnc4C)cc3)c(-c3cc(OC)c(OC)c(OC)c3)oc2c1 4.31

Try this compound next: COc1cccc2c1C(=O)c1c(O)c3c(c(O)c1C2=O)C[C@@](O)(C(=O)CO)C[C@@H]3O[C@H]1C[C@H](N)[C@H](O)[C@H](C)O1 [DOXORUBICIN] 6.06

Try this compound next: COc1cc(OC)c2c(=O)c(OCCCCOc3ccccc3/C=C/C(=O)/C=C/c3cccc([N+](=O)[O-])c3)c(-c3cc(OC)c(OC)c(OC)c3)oc2c1 5.39

Try this compound next: COc1cc(OC)c2c(=O)c(OCCCCOc3ccccc3/C=C/C(=O)/C=C/c3ccc(Cl)cc3)c(-c3cc(OC)c(OC)c(OC)c3)oc2c1 5.04

Try this compound next: COc1cc(OC)c2c(=O)c(OCCCCOc3ccc(/C=C/C(=O)/C=C/c4scnc4C)cc3)c(-c3cc(OC)c(OC)c(OC)c3)oc2c1 4.38

Try this compound next: COc1cc(OC)c2c(=O)c(OCCCCOc3ccccc3/C=C/C(=O)/C=C/c3ccco3)c(-c3cc(OC)c(OC)c(OC)c3)oc2c1 5.05

Try this compound next: COc1cc(OC)c2c(=O)c(OCCCOc3ccccc3/C=C/C(=O)/C=C/c3scnc3C)c(-c3cc(OC)c(OC)c(OC)c3)oc2c1 5.32
